Parameter: cleaved RNA product abundance. Scope: all listed entries.
# Test system: Bacillus subtilis
# assay-name: cleaved RNA product abundance (RNA/gDNA barcode ratio) relative to median wild-type variant (ratio to wild type); higher = more accumulation of the downstream cleavage product
# applied-conditions: experiment (reporter, strain, medium): exp 8a: truncated aprE reporter, strain BJT201 with 2% xylose (RNase J1 expressed); cleavage site: glnRA (positions -5 to +31 mutated)
measurement-type: cleaved RNA product abundance

• CGACATGTCCCGCTTCTTTCATTAATCCGTTAGCAACTGTTTAGTTATATACATTTACCTTTTAAGAGGAGGAAT = 0.327
• CGACATGTCCCGCTTCTTTCATTAAACCGTTAGCAACTGTTTTGCTATATAGATTTACCTTTTAAGAGGAGGAAT = 1.35
• CGACATGTCCCGCTTCTTTCATTACTCCGTTAGCAACTGTTTTGCTATATACATTAACCTTTTAAGAGGAGGAAT = 1.36
• CGACATGTCCCGCTTCTTTCATTAATCCGTTAGCAATTGTTTAGCTATATACATTTACCTTTTAAGAGGAGGAAT = 0.468
• CGACATGTCCCGCTTCTTTCATTAATCCGTTAACACCTGTTTTGCTATATACATTTACCTTTTAAGAGGAGGAAT = 0.258
• CGACATGTCCCGCTTCTTTCATTAATCCGTTATCAACTGTTTTGCTATATACTTTTACCTTTTAAGAGGAGGAAT = 0.295
• CGACATGTCCCGCTTCTTTCATTAATCCGTTAGCAACTGTTTTTCTATATACATTTACCTTTTAAGAGGAGGAAT = 0.576
• CGACATGTCCCGCTTCTTTCATTATTCCGTTAGTAACTGTTTTGCTATATACATTTACCTTTTAAGAGGAGGAAT = 0.651
• CGACATGTCCCGCTTCTTTCATTAATCCGTTAATAACTGTTTTGCTATATACATTTACCTTTTAAGAGGAGGAAT = 0.262
• CGACATGTCCCGCTTCTTTCATTAATCCGTTAGCAACTGTTTTGCTATAAACTTTTACCTTTTAAGAGGAGGAAT = 0.318
• CGACATGTCCCGCTTCTTTCATTAATCCGTTAGCAACTGTTTTGCTAAATACATTTGCCTTTTAAGAGGAGGAAT = 0.22
• CGACATGTCCCGCTTCTTTCATTATTCCGTTAGCAACTGTTTGGCTATATACATTTACCTTTTAAGAGGAGGAAT = 0.949
• CGACATGTCCCGCTTCTTTCATTAATCCGTAACCAACTGTTTTGCTATATACATTTACCTTTTAAGAGGAGGAAT = 0.187
• CGACATGTCCCGCTTCTTTCATTAATCCGTTAGCAACTGTTTTGTTATATACATTTACCCTTTAAGAGGAGGAAT = 0.388
• CGACATGTCCCGCTTCTTTCATTAATCCGTTAGCAACTGTTTTGCGATATACATTTACCTTTTAAGAGGAGGAAT = 0.406
• CGACATGTCCCGCTTCTTTCATTAATCCGCGAGCAACTGTTTTGCTATATACATTTACCTTTTAAGAGGAGGAAT = 0.318
• CGACATGTCCCGCTTCTTTCATTATTCCGTTAGCAACTGTTTTGCTATATTCATTTACCTTTTAAGAGGAGGAAT = 0.669
• CGACATGTCCCGCTTCTTTCATTAATCCGTTAGCAACTTTTTTGCTATATATATTTACCTTTTAAGAGGAGGAAT = 0.911
• CGACATGTCCCGCTTCTTTCATTATTCCGTTAGCAACTGTTTAGCTATATACATTTACCTTTTAAGAGGAGGAAT = 0.706
• CGACATGTCCCGCTTCTTTCATTAATCCGTTAGCAACTGTTTTGCTAGATACATATACCTTTTAAGAGGAGGAAT = 0.781
• CGACATGTCCCGCTTCTTTCATTAATCCGTTAGCAACTGTTTTGCTATATAAATCTACCTTTTAAGAGGAGGAAT = 1.49
• CGACATGTCCCGCTTCTTTCATTAATCCGTTAGAAACTGTTTCGCTATATACATTTACCTTTTAAGAGGAGGAAT = 0.12
• CGACATGTCCCGCTTCTTTCATTAATCCGTTAGCAACTGTTTTGCTATATACATTTACGTTTTAAGAGGAGGAAT = 1.12
• CGACATGTCCCGCTTCTTTCATTAATCGGTTAGAAACTGTTTTGCTATATACATTTACCTTTTAAGAGGAGGAAT = 0.222

* * *

Parameter: cleaved RNA product abundance. Scope: all listed entries.
# System: Bacillus subtilis
# assay-name: cleaved RNA product abundance (RNA/gDNA barcode ratio) relative to median wild-type variant (ratio to wild type); higher = more accumulation of the downstream cleavage product
# applied-conditions: experiment (reporter, strain, medium): exp 4a: truncated aprE reporter, strain BJT201 with 2% xylose (RNase J1 expressed); cleavage site: cggR-gapA (positions -7 to +36 mutated)
measurement-type: cleaved RNA product abundance

• ACAGACGAAGGAGCCGCAAAGAAGTTATTAAGGGATGAATAATCCCTCAATAAAAATGTCTCTCACTTATTTAAA = 0.0307
• ACAGACGAAGGAGCCGCAAAGAAGTTATTAAGGGATGACTAATTCCTCAATATAAATATCTCTCACTTATTTAAA = 0.314
• ACAGACGAAGGAGCCGCAAAGAAGTTATTAAGGGATGAATATTCACTCAATATAAATATCTCTCACTTATTTAAA = 0.18
• ACAGACGAAGGAGCCGCAAAGAAGTTATTAAGAGATGAATGATCCCTCAATATAAATATCTCTCACTTATTTAAA = 0.0837
• ACAGACGAAGGAGCCGCAAAGAAGTTATTAATGGTTGAATAATCCCTCAATATAAATATCTCTCACTTATTTAAA = 0.121
• ACAGACGAAGGAGCCGCAAAGAAGTTATTAAGGGATGAATAACCACTCAATATAAATATCTCTCACTTATTTAAA = 0.17
• ACAGACGAAGGAGCCGCAAAGAAGTTAATAAGGGATGTATAATCCCTCAATATAAATATCTCTCACTTATTTAAA = 0.322
• ACAGACGAAGGAGCCGCAAAGAAGTTATTAAGGCATGAATAATCCTTCAATATAAATATCTCTCACTTATTTAAA = 0.13
• ACAGACGAAGGAGCCGCAAAGAAGTTATTAAGGGATGAATGATCCCTCAAAATAAATATCTCTCACTTATTTAAA = 0.149
• ACAGACGAAGGAGCCGCAAAGACATTATTAAGGGATGAATAATCCCTCAATATAAATATCTCTCACTTATTTAAA = 0.85
• ACAGACGAAGGAGCCGCAAAGAACTTATTAAGAGATGAATAATCCCTCAATATAAATATCTCTCACTTATTTAAA = 0.147
• ACAGACGAAGGAGCCGCAAAGAACTTATTAAGGGATGACTAATCCCTCAATATAAATATCTCTCACTTATTTAAA = 0.382
• ACAGACGAAGGAGCCGCAAATAAGTTATTAAGGGATGAATAATCCCTCAGTATAAATATCTCTCACTTATTTAAA = 0.303
• ACAGACGAAGGAGCCGCAAAGAAGCTATTAAGGGATGAATATTCCCTCAATATAAATATCTCTCACTTATTTAAA = 0.56
• ACAGACGAAGGAGCCGCAAAGAAGTTATTAAGGGATGACTATTCCCTCAATATAAATATCTCTCACTTATTTAAA = 0.804
• ACAGACGAAGGAGCCGCAAAGAAGTTATTAACAGATGAATAATCCCTCAATATAAATATCTCTCACTTATTTAAA = 0.0984

* * *

# Test system: Bacillus subtilis
# assay-name: cleaved RNA product abundance (RNA/gDNA barcode ratio) relative to median wild-type variant (ratio to wild type); higher = more accumulation of the downstream cleavage product
# applied-conditions: experiment (reporter, strain, medium): exp 4a: truncated aprE reporter, strain BJT201 with 2% xylose (RNase J1 expressed); cleavage site: cggR-gapA (positions -7 to +36 mutated)
measurement-type: cleaved RNA product abundance

- ACAGACGAAGGAGCCGCAAAGAAGTTATTAAGGGCTGAATAATCCCTCTATATAAATATCTCTCACTTATTTAAA: 0.255
- ACAGACGAAGGAGCCGCTATGAAGTTATTAAGGGATGAATAATCCCTCAATATAAATATCTCTCACTTATTTAAA: 0.952
- ACAGACGAAGGAGCCGCAAAGAAGTTATTAAGGAATGAAGAATCCCTCAATATAAATATCTCTCACTTATTTAAA: 0.17
- ACAGACGAAGGAGCCGCAAAGAAGTTGTTCAGGGATGAATAATCCCTCAATATAAATATCTCTCACTTATTTAAA: 0.446
- ACAGACGAAGGAGCCGCAATGAAGTTAATAAGGGATGAATAATCCTTCAATATAAATATCTCTCACTTATTTAAA: 0.263
- ACAGACGAAGGAGCCGCAAAGAAGTTATTAAGGGATGAAGCATCCCTCAATATAAATATCTCTCACTTATTTAAA: 0.748
- ACAGACGAAGGAGCCGCAAAGAAGTTATTCAGGGATGAACAATCCCTCAATATAAATATCTCTCACTTATTTAAA: 0.603
- ACAGACGAAGGAGCCGCAAAGAAGTTATTAAGGGATGAATACTCCCTCTATATAAATATCTCTCACTTATTTAAA: 0.259
- ACAGACGAAGGAGCCGCTAAGAAGTTATTAAGGGATGAATAATGCCTCAATATAAATATCTCTCACTTATTTAAA: 0.154
- ACAGACGAAGGAGCCGCAGAGAAGTTATTAAGGGCTGAATAATCCCTCAATATAAATATCTCTCACTTATTTAAA: 0.694
- ACAGACGAAGGAGCCGCAAAGAAGTTATTAAGGTATGAATAATCCCTCAATATAGATATCTCTCACTTATTTAAA: 0.08
- ACAGACGAAGGAGCCGCAAATAAGTTATTAAGGAATGAATAATCCCTCAATATAAATATCTCTCACTTATTTAAA: 0.129
- ACAGACGAAGGAGCCGCAAAGAAGTTATTAAGGGATGAATAATCTCTCAATATAAATTTCTCTCACTTATTTAAA: 0.708
- ACAGACGAAGGAGCCGCAAAGAAGTTATTAAGGGATGATTAATCCCTCAAGATAAATATCTCTCACTTATTTAAA: 0.304
- ACAGACGAAGGAGCCGCATAGAAGTTATTAAGGGATGAATAATCCTTCAATATAAATATCTCTCACTTATTTAAA: 0.54
- ACAGACGAAGGAGCCGCAAATAAGTTATTAAGGGATGAATAATACCTCAATATAAATATCTCTCACTTATTTAAA: 0.165
- ACAGACGAAGGAGCCGCAAAGAAGTTATTAAGGGATGAACAATCCCTCATTATAAATATCTCTCACTTATTTAAA: 0.321

All values here come from the supplement of paper PMC11780869.
